Data origin: the supplement of paper PMC3545927

Assayed target: furin, P09958;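 also: purified furin at 1:10 enzyme:substrate in 50 mM HEPES pH 7.5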
Sequence (P09958 whole entry): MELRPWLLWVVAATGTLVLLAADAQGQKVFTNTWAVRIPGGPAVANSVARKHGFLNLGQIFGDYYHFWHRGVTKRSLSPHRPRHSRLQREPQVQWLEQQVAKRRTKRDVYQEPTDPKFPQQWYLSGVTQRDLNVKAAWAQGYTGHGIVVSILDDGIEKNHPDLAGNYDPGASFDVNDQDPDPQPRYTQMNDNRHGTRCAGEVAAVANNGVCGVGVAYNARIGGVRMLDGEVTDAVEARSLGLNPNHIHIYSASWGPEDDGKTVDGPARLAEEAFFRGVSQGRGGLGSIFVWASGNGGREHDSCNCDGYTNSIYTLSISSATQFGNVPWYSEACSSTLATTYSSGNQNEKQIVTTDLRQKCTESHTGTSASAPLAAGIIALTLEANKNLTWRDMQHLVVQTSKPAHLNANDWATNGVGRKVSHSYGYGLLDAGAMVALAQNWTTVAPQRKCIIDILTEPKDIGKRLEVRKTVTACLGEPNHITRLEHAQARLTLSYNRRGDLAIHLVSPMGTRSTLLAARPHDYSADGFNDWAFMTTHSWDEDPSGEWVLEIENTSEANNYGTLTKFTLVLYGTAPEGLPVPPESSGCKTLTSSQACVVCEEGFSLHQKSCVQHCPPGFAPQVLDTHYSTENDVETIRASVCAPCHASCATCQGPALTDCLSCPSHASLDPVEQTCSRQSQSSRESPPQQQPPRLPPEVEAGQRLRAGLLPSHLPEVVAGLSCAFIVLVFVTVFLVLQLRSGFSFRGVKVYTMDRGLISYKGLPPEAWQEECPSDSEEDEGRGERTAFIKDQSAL
Assay method text: furin cleavage Z-score vs untreated control; higher = more cleavage, active = 3.5 or more, inactive = 1 or less, 8 variable residues between constant flanks
Study conditions: 15 min
The other results are listed elsewhere or left out. The hit rate among all sequences tested is not known here.
Outcome codes: active, inactive

Residue codes | Label value
CATEEAIYQCAGNASASA [HC1488] | inactive
CAIISKKKRMAGNASASA [FS-908] | inactive
CAGSATLCSAAGNASASA [HC294] | inactive
CAPTRRTKRTAGNASASA [FS-76] | active
CAETVTSTWVAGNASASA [HC2178] | inactive
CARNKRTCSEAGNASASA [FS-2161] | active
CAPSPVVVGTAGNASASA [HC416] | inactive
CAAVPCHRPSAGNASASA [HC2303] | inactive
CATNRRKKRAAGNASASA [FS-1174] | active
CATNRRPQDVAGNASASA [HC168] | inactive
CATTPCSGQWAGNASASA [HC1922] | inactive
CATTWCSGSWAGNASASA [HC1868] | inactive
CATSGITGDNAGNASASA [HC1339] | inactive
CADPDLSDGSAGNASASA [HC1359] | inactive
CAEVVTSTWYAGNASASA [HC2249] | inactive
